The entries below pair compounds with IC50 values for Mast/stem cell growth factor receptor Kit (Homo sapiens, UniProt P10721), as found in several publications.

// below: answered compounds
Cc1nc(NC(=O)N2CCC(C)(C)C2=O)ccc1Oc1ccnc(-c2cnn(CCO)c2)c1; 0.476 µM
COc1cc2c(Oc3ccc(NC(=O)C4(C(=O)Nc5ccc(F)cc5)CC4)cc3)ccnc2cc1OC(=O)N1CC[C@H](O)C1; < 0.1 µM
COc1cncc(Nc2ccc(C(=O)c3c[nH]c4ncnc(NCC(F)(F)F)c34)c(F)n2)c1; < 1 µM
CS(=O)(=O)Nc1cccc(-c2cnc3[nH]cc(C(=O)c4cc(NS(=O)(=O)C5CCCC5)ccc4F)c3c2)c1; ≤ 10 µM
N#Cc1ccnc2[nH]cc(C(=O)c3c(F)ccc(NS(=O)(=O)C4CCCCC4)c3F)c12; ≤ 10 µM
O=C(c1c(F)ccc(NS(=O)(=O)c2ccc(-c3cnco3)s2)c1F)c1c[nH]c2ncc(Cl)cc12; ≤ 10 µM
COc1ncc(F)cc1CNc1ccc(Cc2c[nH]c3ncnc(OC)c23)c(F)n1; ≤ 10 µM
CCNC(=O)COc1ccc(F)c(Cc2c[nH]c3ncc(-c4cccnc4)cc23)c1F; ≤ 10 µM
COCCOc1ccc(F)c(Cc2c[nH]c3ncccc23)c1Cl; ≤ 10 µM
CCCS(=O)(=O)Nc1ccc(F)c(C(=O)c2c[nH]c3ncc(-c4ccc(CCCOC)nc4)cc23)c1F; ≤ 10 µM

IN: Give the reported IC50 for `CCc1ccc(Nc2ccc(C(=O)c3c[nH]c4ncnc(NCC5CC5)c34)c(F)n2)cn1` (system: Mast/stem cell growth factor receptor Kit (Homo sapiens, UniProt P10721)).
OUT: < 0.1 µM

IN: Give the reported IC50 for `O=C(Nc1ccc(Cl)c(C(F)(F)F)c1)OCc1cccc(-c2cncnc2)n1` (system: Mast/stem cell growth factor receptor Kit (Homo sapiens, UniProt P10721)).
OUT: 0.5 to 5 µM

IN: Give the reported IC50 for `Cc1nc(-c2cnc(NC(C)C)n(C)c2=O)ccc1Cc1c[nH]c2ncccc12` (system: Mast/stem cell growth factor receptor Kit (Homo sapiens, UniProt P10721)).
OUT: 0.0508 µM

IN: Give the reported IC50 for `COc1cnc2[nH]cc(Cc3c(F)ccc(NS(=O)(=O)c4cccc(C(F)(F)F)c4)c3F)c2c1` (system: Mast/stem cell growth factor receptor Kit (Homo sapiens, UniProt P10721)).
OUT: ≤ 10 µM

IN: Give the reported IC50 for `CCCS(=O)(=O)Nc1ccc(F)c(C(=O)c2c[nH]c3ncc(-c4ccc(F)nc4)cc23)c1F` (system: Mast/stem cell growth factor receptor Kit (Homo sapiens, UniProt P10721)).
OUT: ≤ 10 µM

IN: Give the reported IC50 for CC1CN(c2cncnc2)Cc2cc(C(=O)Nc3cc(CN(C)CCN(C)C)cc(C(F)(F)F)c3)ccc21 (stereo not shown) (system: Mast/stem cell growth factor receptor Kit (Homo sapiens, UniProt P10721)).
OUT: > 10 µM

###

The entries below pair molecules with IC50 values for Mast/stem cell growth factor receptor Kit (Homo sapiens, UniProt P10721), as found in several publications.

Cc1ccc(Nc2ccc(Cc3c[nH]c4ncnc(C5CC5)c34)c(F)n2)cn1; < 1 µM
CCCCS(=O)(=O)Nc1ccc(F)c(C(=O)c2c[nH]c3ncc(-c4cnn(C)c4)cc23)c1Cl; ≤ 10 µM
O=C(Nc1ccc(Cl)c(C(F)(F)F)c1)OCc1ccc(-c2cn[nH]c2)cc1; 0.5 to 5 µM
O=C(CCCCC(=O)NCc1cc(Oc2ccc(NC(=O)Nc3ccc(Cl)c(C(F)(F)F)c3)cc2)ccn1)NO; < 0.1 µM
O=C(c1ccccc1)c1c[nH]c2ncc(Br)c([N+](=O)[O-])c12; ≤ 10 µM
CCCS(=O)(=O)Nc1ccc(F)c(C(=O)c2c[nH]c3ncc(-c4ncc(C)n4C)cc23)c1F; ≤ 10 µM
CC(=O)Nc1cccc(-c2cnc3[nH]cc(C(=O)c4cc(Cl)cc(Cl)c4)c3c2)c1; ≤ 10 µM
O=C(c1ccccc1)c1c[nH]c2ncccc12; ≤ 10 µM
COc1cccc(Cc2c[nH]c3ncc(-c4ccsc4)cc23)c1; ≤ 10 µM
CS(=O)(=O)Nc1ccc(F)c(Cc2c[nH]c3ncc(-c4cccnc4)cc23)c1F; ≤ 10 µM

IN: Give the reported IC50 for `Cc1cnc2[nH]cc(Cc3ccc(Nc4ccc(C)nc4)nc3F)c2c1` (system: Mast/stem cell growth factor receptor Kit (Homo sapiens, UniProt P10721)).
OUT: < 1 µM

IN: Give the reported IC50 for `Cn1cc(S(=O)(=O)Nc2ccc(F)c(C(=O)c3c[nH]c4ncc(Cl)cc34)c2F)c(C(F)(F)F)n1` (system: Mast/stem cell growth factor receptor Kit (Homo sapiens, UniProt P10721)).
OUT: ≤ 10 µM

###

The entries below pair molecules with IC50 values for Mast/stem cell growth factor receptor Kit (Homo sapiens, UniProt P10721), as found in several publications.

// below: answered molecules
COc1ccc(CNc2ccc(Cc3c[nH]c4ncncc34)c(F)n2)c(OC)n1; ≤ 10 µM
COCCOc1ccc(F)c(Cc2c[nH]c3ncc(-c4cccnc4)cc23)c1F; ≤ 10 µM
OCCOc1ccc(F)c(Cc2c[nH]c3ncc(Br)cc23)c1F; ≤ 10 µM
CCCS(=O)(=O)Nc1ccc(F)c(C(=O)c2c[nH]c3ncc(OC)cc23)c1F; ≤ 10 µM
CCCS(=O)(=O)Nc1ccc(F)c(C(=O)c2c[nH]c3ncc(-c4ccc(F)c(OC)c4)cc23)c1F; ≤ 10 µM

IN: Give the reported IC50 for `O=C(O)c1ccc(Sc2c[nH]c3ncccc23)nc1` (system: Mast/stem cell growth factor receptor Kit (Homo sapiens, UniProt P10721)).
OUT: ≤ 10 µM

IN: Give the reported IC50 for `NC(=O)c1cccc(-c2cnc3[nH]cc(C(=O)c4ccccc4OCc4ccccc4)c3c2)c1` (system: Mast/stem cell growth factor receptor Kit (Homo sapiens, UniProt P10721)).
OUT: ≤ 10 µM

IN: Give the reported IC50 for `CSc1ccc(Nc2ncc(Cc3c[nH]c4ncc(C)cc34)cn2)cc1` (system: Mast/stem cell growth factor receptor Kit (Homo sapiens, UniProt P10721)).
OUT: < 0.01 µM

IN: Give the reported IC50 for `Fc1cc(OCc2nc3ccccc3[nH]2)c(F)cc1Cc1c[nH]c2ncc(Br)cc12` (system: Mast/stem cell growth factor receptor Kit (Homo sapiens, UniProt P10721)).
OUT: ≤ 10 µM

IN: Give the reported IC50 for `O=C(Nc1ccc(F)c(C(=O)c2c[nH]c3ncc(-c4cccnc4)cc23)c1F)OCc1ccccc1` (system: Mast/stem cell growth factor receptor Kit (Homo sapiens, UniProt P10721)).
OUT: ≤ 10 µM

IN: Give the reported IC50 for `Fc1cccc(Nc2ncc(Cc3c[nH]c4ncc(Cl)cc34)cn2)c1` (system: Mast/stem cell growth factor receptor Kit (Homo sapiens, UniProt P10721)).
OUT: < 1 µM

IN: Give the reported IC50 for `Nc1cccc(-c2cc3c(Oc4cccc(O)c4)ncnc3[nH]2)c1` (system: Mast/stem cell growth factor receptor Kit (Homo sapiens, UniProt P10721)).
OUT: 0.02 µM

IN: Give the reported IC50 for `CN1CCN(c2ccc(Nc3ncc4cc(C#N)c(=O)n(C5CCCC5)c4n3)cc2)CC1` (system: Mast/stem cell growth factor receptor Kit (Homo sapiens, UniProt P10721)).
OUT: 0.408 µM

IN: Give the reported IC50 for `COc1cc(Cc2c[nH]c3ncccc23)ccc1OCc1ccc(Cl)cc1` (system: Mast/stem cell growth factor receptor Kit (Homo sapiens, UniProt P10721)).
OUT: ≤ 10 µM

###

The entries below pair molecules with IC50 values for Mast/stem cell growth factor receptor Kit (Homo sapiens, UniProt P10721), as found in several publications.

// below: answered molecules
COc1ccc(C(=O)c2c[nH]c3ncc(-c4cccs4)cc23)cc1; ≤ 10 µM
CC1CN(c2cncnc2)Cc2cc(C(=O)Nc3cc(N4CCN(C)CC4)cc(C(F)(F)F)c3)ccc21 (stereo not shown); > 10 µM
COc1ccc(S(=O)(=O)Nc2ccc(F)c(C(=O)c3c[nH]c4ncccc34)c2F)cc1; ≤ 10 µM

Attention now shifts to the item below.
IN: Fill in the blank: the reported IC50 of `COc1ncc(-c2cnc3[nH]cc(C(=O)c4c(F)ccc(NS(=O)(=O)CC(C)C)c4F)c3c2)cn1` is ____.
OUT: ≤ 10 µM

###

The entries below pair compounds with IC50 values for Mast/stem cell growth factor receptor Kit (Homo sapiens), as found in several publications.

// below: answered compounds
O=C(c1cc(O)ccc1F)c1c[nH]c2ncc(-c3cccs3)cc12; ≤ 10 µM
CC(C)CS(=O)(=O)Nc1ccc(F)c(C(=O)c2c[nH]c3nccc(Cl)c23)c1F; ≤ 10 µM
Cn1cc(-c2cnc3[nH]cc(C(=O)c4cccc(NS(=O)(=O)c5cccc(OC(F)(F)F)c5)c4)c3c2)cn1; ≤ 10 µM
CCN1CCC(Nc2ccc3c(c2)/C(=C(/c2ncc[nH]2)c2ccc(C(F)(F)F)cc2F)C(=O)N3)CC1; < 0.05 µM

IN: Give the reported IC50 for `COc1ncc(-c2cnc3[nH]cc(C(=O)c4c(F)ccc(NS(=O)(=O)C5CCCC5)c4F)c3c2)cn1` (system: Mast/stem cell growth factor receptor Kit (Homo sapiens)).
OUT: ≤ 10 µM

IN: Give the reported IC50 for `Cc1cnc2[nH]cc(C(=O)c3c(F)ccc(NS(=O)(=O)C4CCCCC4)c3F)c2c1` (system: Mast/stem cell growth factor receptor Kit (Homo sapiens)).
OUT: ≤ 10 µM

IN: Give the reported IC50 for `COc1ccc(Nc2ccc(C(=O)c3c[nH]c4ncc(C)cc34)c(F)n2)cn1` (system: Mast/stem cell growth factor receptor Kit (Homo sapiens)).
OUT: > 1 µM

IN: Give the reported IC50 for `Cc1c(O)cccc1C(=O)c1c[nH]c2ncc(-c3cccs3)cc12` (system: Mast/stem cell growth factor receptor Kit (Homo sapiens)).
OUT: ≤ 10 µM
